Just for reference, ChEMBL document CHEMBL1141470 is where these values come from.

The following compounds are listed with their measured IC50 values.
# subject.of.test: UniProt:Q13547
# Sequence (Q13547 whole entry): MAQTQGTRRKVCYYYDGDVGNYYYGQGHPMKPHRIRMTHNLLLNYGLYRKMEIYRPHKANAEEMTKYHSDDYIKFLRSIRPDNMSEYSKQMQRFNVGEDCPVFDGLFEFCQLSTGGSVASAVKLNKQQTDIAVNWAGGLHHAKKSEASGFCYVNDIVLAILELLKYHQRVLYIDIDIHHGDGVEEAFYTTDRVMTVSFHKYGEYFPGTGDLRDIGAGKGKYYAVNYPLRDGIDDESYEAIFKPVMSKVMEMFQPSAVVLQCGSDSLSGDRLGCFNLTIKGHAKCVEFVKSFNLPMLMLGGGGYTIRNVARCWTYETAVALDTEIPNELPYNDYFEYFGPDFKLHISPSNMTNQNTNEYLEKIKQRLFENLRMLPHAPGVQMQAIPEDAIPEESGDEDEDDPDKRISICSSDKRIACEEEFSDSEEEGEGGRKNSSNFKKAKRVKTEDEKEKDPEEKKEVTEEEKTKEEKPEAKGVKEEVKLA
# test.name: Inhibition of recombinant HDAC1
Please give a number only; it is taken to be in µM.

Nc1ccccc1NC(=O)c1ccc(CSc2nc3ccccc3s2)cc1: 0.1
Nc1ccccc1NC(=O)c1ccc(CSc2nnc(-c3ccccc3)o2)cc1: 0.08
COc1ccc2nc(NCc3ccc(C(=O)Nc4ccccc4N)cc3)sc2c1: 0.03
COc1ccc2nc(SCc3ccc(C(=O)Nc4ccccc4N)cc3)[nH]c2c1: 0.07
Nc1ccccc1NC(=O)c1ccc(CNc2nc3cc(Cl)ccc3o2)cc1: 0.1
Nc1ccccc1NC(=O)c1ccc(CNc2nc3ccc(Br)cc3s2)cc1: 0.05

Given the entry CSc1nnc(NCc2ccc(C(=O)Nc3ccccc3N)cc2)[nH]1 , what IC50 was observed with UniProt:Q13547?
0.2

Given the entry Nc1ccccc1NC(=O)c1ccc(CNc2nc3ccccc3[nH]2)cc1 , what IC50 was observed with UniProt:Q13547?
0.1

Given the entry Nc1ccccc1NC(=O)c1ccc(CSc2ncc[nH]2)cc1 , what IC50 was observed with UniProt:Q13547?
0.5

Given the entry Nc1ccccc1NC(=O)c1ccc(CNc2ncc(-c3ccc(Cl)cc3)s2)cc1 , what IC50 was observed with UniProt:Q13547?
0.3

Given the entry Nc1ccccc1NC(=O)c1ccc(CSc2nc3ccccc3[nH]2)cc1 , what IC50 was observed with UniProt:Q13547?
0.09
